molecular target: DRB1*1101 (Homo sapiens, UniProt P01903+P01911, A100R/A169T/A87E/I96F/K41T/L162R/M171V/P40S/Q125H/Q178H/Q39Y/Q99D/R42S/S66Y/T262R/V115G/W38E); test: biochemical
Sequence (P01903 26-254, other chains not shown): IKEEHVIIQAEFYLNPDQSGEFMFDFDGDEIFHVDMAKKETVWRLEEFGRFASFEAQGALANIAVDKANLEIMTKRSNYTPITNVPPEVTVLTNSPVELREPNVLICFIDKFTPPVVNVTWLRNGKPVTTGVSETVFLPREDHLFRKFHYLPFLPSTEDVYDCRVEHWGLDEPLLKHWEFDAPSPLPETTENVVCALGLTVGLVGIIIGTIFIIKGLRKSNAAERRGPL
Measure: log10 of IC50 (log10 of the value in µM)
Would you kindly interpret these values as log10 of IC50 expressed in µM?

These recorded examples may help you get a feel for the data.
[Q] Look up log10 of IC50 for this compound: CC[C@H](C)[C@H](NC(=O)[C@H](C)NC(=O)[C@H](C)NC(=O)[C@H](C)NC(=O)[C@@H](N)CCC(=O)O)C(=O)N[C@@H](Cc1ccccc1)C(=O)N[C@@H](CCSC)C(=O)N[C@H](C(=O)N[C@@H](C)C(=O)N[C@H](C(=O)N1CCC[C@H]1C(=O)N1CCC[C@H]1C(=O)NCC(=O)N[C@H](C(=O)N[C@@H](C)C(=O)O)[C@@H](C)O)[C@@H](C)O)[C@@H](C)O
[A] -1.03

[Q] Look up log10 of IC50 for this compound: CC[C@H](C)[C@H](NC(=O)[C@H](CCC(=O)O)NC(=O)CNC(=O)[C@@H](NC(=O)[C@@H](NC(=O)[C@@H](NC(=O)[C@H](CCC(N)=O)NC(=O)[C@H](Cc1ccccc1)NC(=O)[C@@H](NC(=O)CNC(=O)[C@@H]1CCCN1C(=O)[C@H](CCSC)NC(=O)[C@@H](NC(=O)[C@H](CCC(N)=O)NC(=O)[C@@H](N)Cc1ccccc1)[C@@H](C)O)[C@@H](C)O)[C@@H](C)O)[C@@H](C)O)[C@@H](C)O)C(=O)O
[A] 0.59

[Q] Look up log10 of IC50 for this compound: CC(C)C[C@H](NC(=O)[C@@H](NC(=O)CNC(=O)[C@H](CC(N)=O)NC(=O)[C@H](CO)NC(=O)[C@H](Cc1c[nH]c2ccccc12)NC(=O)[C@H](CC(C)C)NC(=O)[C@@H](NC(=O)[C@H](Cc1c[nH]cn1)NC(=O)[C@H](CO)NC(=O)[C@H](CCCCN)NC(=O)[C@@H]1CCCN1C(=O)[C@@H](N)Cc1c[nH]c2ccccc12)[C@@H](C)O)C(C)C)C(=O)N[C@@H](CCC(=O)O)C(=O)N[C@@H](CO)C(=O)O
[A] 1.11

[Q] Look up log10 of IC50 for this compound: CC[C@H](C)[C@H](NC(=O)[C@H](Cc1c[nH]c2ccccc12)NC(=O)[C@H](Cc1ccc(O)cc1)NC(=O)CNC(=O)[C@H](CCSC)NC(=O)[C@H](CC(=O)O)NC(=O)[C@H](C)NC(=O)[C@H](Cc1c[nH]cn1)NC(=O)[C@@H](NC(=O)[C@H](C)N)C(C)C)C(=O)N[C@@H](CCC(=O)O)C(=O)N[C@@H](CO)C(=O)N[C@@H](CCC(N)=O)C(=O)N[C@@H](CCCCN)C(=O)N[C@@H](CC(N)=O)C(=O)O
[A] 1.14

Alright, here's another compound for you.
[Q] Look up log10 of IC50 for this compound: CSCC[C@H](NC(=O)[C@H](CCC(N)=O)NC(=O)[C@H](C)NC(=O)[C@H](Cc1ccc(O)cc1)NC(=O)[C@H](C)NC(=O)[C@H](CCCCN)NC(=O)CNC(=O)[C@H](CC(C)C)NC(=O)[C@H](CS)NC(=O)[C@H](C)NC(=O)[C@@H](NC(=O)[C@H](CCC(=O)O)NC(=O)[C@H](CCCNC(=N)N)NC(=O)[C@H](CC(C)C)NC(=O)[C@@H](N)CO)[C@@H](C)O)C(=O)N[C@@H](Cc1c[nH]c2ccccc12)C(=O)N[C@H](C(=O)O)[C@@H](C)O
[A] -1.10
